test: Brain penetration (plasma and brain exposure); type: in vivo, mouse; details: PO dose 10 mg/kg; male C57BL6 mice; 60 minute time point
// Brain/Plasma Ratio lookup, one value per entry

For orientation, consider the following solved cases.
compound	Brain/Plasma Ratio
O=C(NCCO)c1cccc2c1CCN2c1cc(Cc2cc(F)c(F)c(F)c2)ccn1 [Compound 92]	3.00
NC(=O)c1cccc2c1CCN2c1cc(Cc2ccc(F)c(Cl)c2)ccn1 [Compound 58]	7.76
O=C(NC1CCN(CCO)CC1)c1cccc2c1CCN2c1cc(Cc2ccc3c(c2)CCO3)ccn1 [Compound 79]	0.16
NC(=O)c1cccc2c1CCN2c1cc(Cc2cncc(C(F)(F)F)c2)ccn1 [Compound 47]	4.67

Continue with the compound presented below.
Identify Brain/Plasma Ratio associated with the compound O=C(NCCO)c1c(F)ccc2c1CCN2c1cc(Cc2cccc(C(F)(F)F)c2)ccn1 [Compound 108]
1.67

Reference source: patent US9676758B2
